biological target: human Y4 receptor (human, UniProt P50391 1-375); experiment: 125I-PP displacement
Sequence (P50391 whole entry): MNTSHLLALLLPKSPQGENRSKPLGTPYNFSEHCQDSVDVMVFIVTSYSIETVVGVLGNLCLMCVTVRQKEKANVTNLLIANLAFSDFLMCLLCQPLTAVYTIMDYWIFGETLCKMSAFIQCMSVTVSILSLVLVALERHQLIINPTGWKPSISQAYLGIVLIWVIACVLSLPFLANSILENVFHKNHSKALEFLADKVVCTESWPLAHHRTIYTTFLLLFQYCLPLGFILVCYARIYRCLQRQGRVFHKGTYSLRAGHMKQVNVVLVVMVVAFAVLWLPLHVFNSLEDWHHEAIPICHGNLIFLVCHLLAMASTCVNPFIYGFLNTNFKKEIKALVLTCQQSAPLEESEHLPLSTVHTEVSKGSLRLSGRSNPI
Entries annotated with measured pIC50
Expect pIC50 as a plain number equal to -log10 of the molar concentration.

{"binder": "APLEPVYPGDNATPEQMAEYAADLRRYINMLTRPRY [4055524]", "observedValue": 9.52}
{"binder": "PAPLEPEYPGDNATPEQMARYAAELRRYINKLTRPRY [7254]", "observedValue": 9.96}
{"binder": "APPEPVYPGDDATPEQMAEYVADLRRYINMLTRPRY [4055405]", "observedValue": 9.62}

Prompt: What does the data say about its pIC50? Entry: PAPLEPTYPGDDATPQQMARYAAELRRYINFLTRPRY [7259]
Response: 10.12

Prompt: Can you check PAPLEPKYPGDDATPQQMARYAAELRRYINKLTRPRY [7255] next?
Response: 10.04

Prompt: And for APLEPVYPGDNATPEQMAHYAADLRRYINMLTRPRY [4055525] ?
Response: 9.96

Prompt: Quick one: PAPLEPEYPGDDATPQQMARYAAELRRYINILTRPRY [7256]
Response: 9.88
